Several reports have described Ki for Sodium-dependent serotonin transporter (Homo sapiens); a selection of those results is presented here.
Give the value, in units of nM, as a plain number.

[in] GET Ki | system: Sodium-dependent serotonin transporter (Homo sapiens) | item: O=c1ccc(-n2ccc3ccccc32)nn1CCCCN1CCN(c2cccc(C(F)(F)F)c2)CC1
[out] 109

[in] Name the recorded Ki of COc1cccc(F)c1Oc1ncccc1C1CCNCC1 , assay system Sodium-dependent serotonin transporter (Homo sapiens).
[out] 887

[in] State Ki (Sodium-dependent serotonin transporter (Homo sapiens)) of Clc1ccc([C@@H]2C[C@H](NCc3ccccc3)c3ccccc32)cc1Cl (relative stereo) .
[out] 2100

====

Assembled from different publications: Ki for Sodium-dependent serotonin transporter (Homo sapiens, UniProt P31645).
Please don't drop the unit; write it after the number.

[in] Specify measured Ki for CN1CC2C(=NO[C@H]2CN2CCN(C/C=C/c3ccccc3)CC2)c2ccccc21 (stereo partly specified) .
[out] 16 nM

[in] // Input: Cc1ccc(Oc2cc(F)ccc2CN(C)C)c(N)c1 . Output its Ki only.
[out] 7 nM

[in] Answer with the recorded Ki of CC(C)CN(Cc1ccc(C(F)(F)F)cc1F)C1CCNCC1 only.
[out] 5.8 nM

[in] Give the measured Ki for COc1ccc(C2CN(C)Cc3cc(OCCCN4CCN(C(C)C)CC4)ccc32)cc1 (stereo unspecified)
[out] 1.8 nM

[in] Indicate its recorded Ki; the compound in question is CC(C)CN(C(=O)c1cccc(F)c1Cl)[C@H]1CCNC1
[out] 15 nM

[in] Supply measured Ki of COc1ccc(CN(CC(C)C)C2CCNCC2)c(OC)c1 in your reply.
[out] 2.2 nM

====

A compilation of published pKi results with Sodium-dependent serotonin transporter (Homo sapiens).
In simple prose, pKi is minus the logarithm base ten of a concentration in moles per litre.

[in] Please indicate pKi recorded for COc1cc(Cl)ccc1O[C@@H](c1cccc(F)c1)[C@@H]1CNCCO1
[out] 7.24

[in] Answer with reported pKi of O=C(NC1CCCC1)c1ccc(-c2ccc3c(c2)CCN(CCN2CCCC2)C3=O)cc1
[out] 6.77

[in] Please give the documented pKi of Fc1ccc(COc2ccc(Cl)cc2C2CCNCC2)cc1
[out] 7.40

[in] Dear colleague, please send me the reported pKi for CSc1ccccc1O[C@@H](c1ccccc1)[C@@H]1CNCCO1 when you can.
[out] 7.04

[in] # return recorded pKi for input CN(C)Cc1cc(OCCCF)ccc1Sc1ccc(F)cc1N
[out] 9.02

[in] Return pKi (reported value) for this molecule: O=C1COc2ccc(CCN3CCN(c4nccc5ccccc45)CC3)cc2N1
[out] 9.10

[in] Fill in pKi for record Cc1ccc(Sc2cc(F)ccc2CN(C)C)c(N)c1
[out] 7.89

[in] Answer with the recorded pKi of NCC1CCC(CCc2cccc3ccccc23)O1 (stereo unspecified) only.
[out] 7.74

[in] Consider the molecule FCCCOc1ccccc1S[C@@H](c1ccccc1)[C@@H]1CNCCO1 and give its recorded pKi.
[out] 6.92

[in] Please indicate pKi recorded for C#CCOc1ccc(C(=O)c2ccc(CN(C)CCC[C@@]3(c4ccc(F)cc4)OCc4cc(C#N)ccc43)cc2)cc1
[out] 6.31

[in] Give reported pKi value for CCNC(=O)c1ccc(-c2ccc3c(c2)CCN(CCN2CCC[C@H]2C)C3=O)cc1
[out] 6.52

[in] Recall and state the measured pKi for COc1cc(C#N)ccc1O[C@@H](c1ccccc1)[C@@H]1CNCCO1 .
[out] 6.96

[in] Please report the measured pKi for CN(C)Cc1ccccc1Sc1ccc(C(F)(F)F)cc1N
[out] 9.48

[in] Give recorded pKi. COCCOc1cc(CC2CCN(CCc3ccc4c(c3)C(=O)CCO4)CC2)ccc1I
[out] 9.39

[in] Specify pKi for Clc1ccccc1Oc1ncccc1C1CCNCC1 and stop.
[out] 7.24

[in] Please give measured pKi of the following entry: O=C(Cc1ccccc1)NCCNCCOC(c1ccc(F)cc1)c1ccc(F)cc1
[out] 6.25

[in] Check the records and state pKi for CNCCC(Oc1cccc2ccccc12)c1cccc(C(F)(F)F)c1 (stereo unspecified)
[out] 7.72

[in] Given the molecule O=C1NCCc2ccc3c(c21)CC(N(CCCc1c[nH]c2ccc(F)cc12)C(=O)c1ccccc1)CO3 (racemic) , write its reported pKi.
[out] 6.17

[in] Tell me measured pKi for O=C1CC(c2c[nH]c3ccc(F)cc23)C(=O)N1CCCCN1CCC(c2c[nH]c3ccc(F)cc23)CC1 (stereo unspecified) please.
[out] 7.49

[in] Identify pKi associated with the molecule COc1ccc(F)cc1CCC1CCC(CCNCCCCCN2N=C(c3ccc(OC)c(OC)c3)[C@H]3CC=CC[C@H]3C2=O)O1 (mixture of isomers)
[out] 6.81

====

pKi values for UniProtKB P31645 compiled from several publications are listed below.
Field pKi (float): negative decimal logarithm of the concentration in molar.

[in] # return pKi for CCC(CC)CN(Cc1ccccc1C(F)(F)F)C1CCNCC1 , test system: UniProtKB P31645
[out] 8.16

[in] Provide pKi, tested on UniProtKB P31645, for CCN(CCCc1c[nH]c2ccc(F)cc12)C1COc2c(F)cc3c(c2C1)C(=O)NCC3 (racemic) .
[out] 7.82

[in] Fill in: pKi on UniProtKB P31645, entry c1ccc(Oc2ccccc2C2CCNCC2)cc1
[out] 5.75

[in] State measured pKi of the molecule CC(C)N(CCCc1c[nH]c2ccc(F)cc12)C1COc2ccc3c(c2C1)C(=O)NCC3 (racemic) with UniProtKB P31645.
[out] 8.10

[in] Please report pKi with UniProtKB P31645 for item CC(C)CN(C(=O)c1cc(Cl)ccc1Cl)[C@H]1CCNC1 .
[out] 7.27

[in] Using UniProtKB P31645 as the test system, report measured pKi of Cc1ccc(C2CCNCC2)c(Oc2ccc(F)cc2)c1 .
[out] 6.37

[in] Under UniProtKB P31645: report pKi of CN(C)Cc1ccccc1Sc1ccc(CO)cc1N .
[out] 9.24

[in] Recall the reported pKi of Cc1c(Cl)cccc1C(=O)N(CC(C)C)[C@H]1CCNC1 when tested on UniProtKB P31645.
[out] 8.52

[in] Given CN(C)CCC(Oc1cccc(Cl)c1)c1ccc(OCCCN2CCCCC2)cc1 (stereo in doubt; 38) , report its pKi on UniProtKB P31645.
[out] 7.68

[in] State measured pKi of the molecule Fc1cccc(Oc2ncccc2C2CCNCC2)c1F with UniProtKB P31645.
[out] 6.96

[in] Find pKi for CN(C)Cc1cc(OCCF)ccc1Sc1ccccc1N on UniProtKB P31645 and write it down.
[out] 9.60

[in] State pKi on UniProtKB P31645. Entry: COc1ccc(CN[C@H]2C3C4CC5C6C4CC3C6C52)cc1OC (some centres not stated)
[out] 7.15

[in] Using UniProtKB P31645 as the test system, report measured pKi of COc1cc2c(cc1OC)C1=NO[C@@H](CN3CCN(C/C(C)=C/c4ccco4)CC3)[C@@H]1CO2 .
[out] 7.68

[in] Determine reported pKi for O=c1[nH]c2cccc(OC3CCN(CCC4CCc5[nH]c6ccc(F)cc6c5C4)CC3)c2o1 (configuration not stated) ; test system: UniProtKB P31645.
[out] 5.92

[in] Give reported pKi for CCN1C(=O)COc2ccc(CCN3CCN(c4cccc5nc(C)ccc45)CC3)cc21 (UniProtKB P31645)
[out] 7.10

[in] Enter recorded pKi with UniProtKB P31645 for O=C1CC(c2c[nH]c3ccc(F)cc23)C(=O)N1CCCN1CCC(c2c[nH]c3ccccc23)CC1 (configuration not stated) here.
[out] 6.82

[in] Enter measured pKi, system UniProtKB P31645, for the molecule shown: c1cc2c(cc1CN[C@H]1C3C4CC5C6C4CC3C6C51)OCO2 (some centres not stated)
[out] 5.70

====

We begin with Ki values for Sodium-dependent serotonin transporter (Homo sapiens), as collected from the published literature.
Record the value in nM, omitting the unit from your answer.

[in] Enter measured Ki, system Sodium-dependent serotonin transporter (Homo sapiens), for the compound shown: Fc1cccc(Cl)c1Oc1ncccc1C1CCNCC1
[out] 194

[in] System Sodium-dependent serotonin transporter (Homo sapiens). Read-out Ki. Item CC(C)CN(C(=O)c1ccc(F)cc1Cl)[C@H]1CCNC1 . Report value.
[out] 7

[in] Report its Ki with Sodium-dependent serotonin transporter (Homo sapiens) as the test system: CC(C)CN(Cc1ccc(F)cc1F)C1CCNCC1
[out] 3.1

[in] Write down measured Ki (Sodium-dependent serotonin transporter (Homo sapiens)) for this compound. O=C(c1nnc(NC2CCCC2)c2cc(Cl)c(Cl)cc12)N1CCC(O)CC1
[out] 3900

[in] State Ki (Sodium-dependent serotonin transporter (Homo sapiens)) of COc1cc2c(cc1OC)C1=NO[C@@H](CN3CCN(C/C=C(\C)c4ccc(F)cc4F)CC3)[C@@H]1CO2 .
[out] 5.4
